Reference source: PubChem BioAssay (EPA / NIEHS)

Read-out: xenobiotic metabolism (CYP1A1), CYP1A1 (gene 1543)
measurement description: CLD_CYP1A1_48hr: CellzDirect (CLD) Gene Expression Assay for xenobiotic metabolism (CYP1A1) at 48 hours (AID 2283705)
Inconclusive results are not listed. Calls of active or inactive are those of the source. Rule for the calls: active = hit-call score of the fitted dose curve at least 0.9, where 1 is the maximum; inconclusive = response in the unintended direction; inactive = score below 0.9.
Respond with a class label; see true (1) (active), false (0) (inactive)

Exercise: I would be grateful if you could indicate the recorded call for COc1ccc(C(=CC(=O)N2CCOCC2)c2ccc(Cl)cc2)cc1OC .
Key: true (1)

Exercise: What did the test return for CCCSP(=O)(OCC)Oc1ccc(Br)cc1Cl (configuration not stated) ?
Key: false (0)

Exercise: Which outcome was entered for the compound CCOP(=S)(Oc1cnc(C(C)(C)C)nc1)OC(C)C (configuration not stated) in this test?
Key: true (1)

Exercise: Just curious, what result did COc1cccc(C(=O)NN(C(=O)c2cc(C)cc(C)c2)C(C)(C)C)c1C get here?
Key: true (1)

Exercise: Please indicate how the test categorized CC(COc1ccc(Oc2ccccc2)cc1)Oc1ccccn1 (configuration not stated) .
Key: false (0)

Exercise: What is the recorded call for this compound in the test? CC1=NNC(=O)N(/N=C/c2cccnc2)C1
Key: true (1)

====

measurement description: ATG_E_Box_CIS: Attagene CIS-FACTORIAL HepG2 Assay for human Enhancer Box (E-box) (AID 2282936)
condition parameters: HepG2 E-box cis-reporter transcription, actives raise or lower the signal
Active and inactive are the calls of the source. Rule for the calls: active = hit-call score of the fitted dose curve at least 0.9, where 1 is the maximum; inactive = score below 0.9.
Could you please pick one outcome from this set? active, inactive

Solved entries (count: 4):
{"columns": ["molecule", "class label"],
 "data": [
  ["FC(F)C(F)(F)OCC(Cn1cncn1)c1ccc(Cl)cc1Cl (stereo not given)", "inactive"],
  ["CCOP(=S)(OCC)Oc1ccc2c(C)c(Cl)c(=O)oc2c1", "inactive"],
  ["C[N+]1(C)CCCCC1", "inactive"],
  ["C[Si](Cn1cncn1)(c1ccc(F)cc1)c1ccc(F)cc1", "active"]
]}

Consider the record given below.
Exercise: I'd appreciate the recorded outcome for COc1cc(OC)nc(Sc2cccc(Cl)c2C(=O)O)n1 from this test.
Key: inactive

====

Read-out: Pyruvate Dehydrogenase Kinase 4 (PDK4), PDK4 (gene 5166)
measurement description: LTEA_HepaRG_PDK4: Life Technologies and Expression Analysis (LTEA) Assay for Pyruvate Dehydrogenase Kinase 4 (PDK4) using HepaRG (AID 2283525)
condition parameters: mRNA level, 48 h; actives raise or lower the signal
The source made the active and inactive calls. The calls were made as follows: active = hit-call score of the fitted dose curve at least 0.9, where 1 is the maximum; inactive = score below 0.9.
Returns: one label drawn from class 1 (active), class 0 (inactive)

Solved cases (4 shown):
{"columns": ["compound", "class label"],
 "data": [
  ["Nc1nc(N)nc(NC2CC2)n1", "class 0"],
  ["Nc1c(Cl)cc([N+](=O)[O-])cc1Cl", "class 1"],
  ["CCCCOC(=O)[C@@H](C)Oc1ccc(Oc2ccc(C#N)cc2F)cc1", "class 1"],
  ["CCOP(=S)(OCC)Oc1ccc2c(C)c(Cl)c(=O)oc2c1", "class 1"]
]}

Exercise: How did this test come out for CCCOc1nn(C(=O)NS(=O)(=O)c2ccccc2C(=O)OC)c(=O)n1C ?
Key: class 0

Exercise: How did this test come out for CCNc1nc(Cl)nc(NC(C)(C)C#N)n1 ?
Key: class 0

Exercise: Lab log entry: CCc1cccc(C)c1N(C(=O)CCl)C(C)COC (centres undefined) — outcome as called in the assay?
Key: class 0

Exercise: Please let me know the test result on file for O=C(O)c1cc(Oc2ccc(C(F)(F)F)cc2Cl)ccc1[N+](=O)[O-] .
Key: class 1

Exercise: // outcome(item) with item = CN(C)C(=O)Nc1cccc(C(F)(F)F)c1
Key: class 0

====

measurement description: CCTE_Shafer_MEA_acute_burst_percentage_std: CCTE's Neural Acute Assay for Standard Deviation of Burst Percentage, Shafer Lab (AID 2284018);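 note: fitted in the negative direction so actives lower burst percentage SD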
Active and inactive are the calls of the source. The calls were made as follows: active = hit-call score of the fitted dose curve at least 0.9, where 1 is the maximum; inactive = score below 0.9.
Hello, when you answer, please use one of the following outcomes: True for active, False for inactive

{"columns": ["compound", "class label"],
 "data": [
  ["CON=C(C(=O)OC)c1ccccc1CON=C(C)c1cccc(C(F)(F)F)c1", "False"],
  ["CN1COCN(Cc2cnc(Cl)s2)C1=N[N+](=O)[O-]", "False"],
  ["CNC(=O)ON=C(SC)C(=O)N(C)C", "False"],
  ["O=C(O)c1cc(Oc2ccc(C(F)(F)F)cc2Cl)ccc1[N+](=O)[O-]", "False"],
  ["CCc1cccc(C)c1N(C(=O)CCl)C(C)COC (configuration not stated)", "False"],
  ["CC(=NC#N)N(C)Cc1ccc(Cl)nc1", "False"],
  ["CCOP(=S)(OCC)SCCSCC", "False"],
  ["CC(C)[C@H](C(=O)O[C@H](C#N)c1cccc(Oc2ccccc2)c1)c1ccc(Cl)cc1", "False"]
]}

Exercise: Status in this test for CCOP(=O)(NC(C)C)Oc1ccc(SC)c(C)c1 (configuration not stated) ?
Key: False

Exercise: # lookup: test call for CN(C)NC(=O)CCC(=O)O
Key: False

Exercise: Given C=C(C)[C@H]1Cc2c(ccc3c2O[C@@H]2COc4cc(OC)c(OC)cc4[C@@H]2C3=O)O1 , state the outcome it received in this test.
Key: True

Exercise: Which outcome was assigned to COP(=O)(OC)C(O)C(Cl)(Cl)Cl (configuration not stated) in this test?
Key: False

====

measurement description: ATG_AP_2_CIS: Attagene CIS-FACTORIAL HepG2 Assay for human Activator Protein 2 (AP-2) (AID 2282932)
condition parameters: HepG2 AP-2 cis-reporter, Attagene transcription factor profiling; actives raise or lower the signal
Activity calls are given as the source filed them. The calls were made as follows: active = hit-call score of the fitted dose curve at least 0.9, where 1 is the maximum; inactive = score below 0.9.
Returns: one label drawn from 1 (active), -1 (inactive)

Please review the following examples before continuing.
{"columns": ["compound", "class label"],
 "data": [
  ["CCc1cnc(C2=NC(C)(C(C)C)C(=O)N2)c(C(=O)O)c1 (configuration not stated)", -1],
  ["N#CSCSC#N", -1],
  ["CC(C1CC1)C(O)(Cn1cncn1)c1ccc(Cl)cc1 (configuration not stated)", -1],
  ["Cc1ccn2nc(S(=O)(=O)Nc3c(F)cccc3F)nc2n1", -1],
  ["COc1cccc(C(=O)NN(C(=O)c2cc(C)cc(C)c2)C(C)(C)C)c1C", 1],
  ["C#CCC1=C(C)C(OC(=O)C2C(C=C(C)C)C2(C)C)CC1=O (configuration not stated)", 1]
]}

Kindly review the next compound as well.
Exercise: // outcome(item) with item = CCOC(=O)CC(SP(=O)(OC)OC)C(=O)OCC (configuration not stated)
Key: -1

====

measurement description: CCTE_Mundy_HCI_Cortical_Synap_Neur_Matur_NeuriteLength: CCTE's Synaptogenesis and Neurite Maturation Assay in rat cortical cells for Neurite Length, Mundy Lab (AID 2284214)
Calls of active or inactive are those of the source. Rule for the calls: active = hit-call score of the fitted dose curve at least 0.9, where 1 is the maximum; inactive = score below 0.9.
recorded metric: AC50

Use the examples below as a reference point.
{"columns": ["molecule", "AC50"],
 "data": [
  ["CN(C)[C@@H]1C(=O)C(C(N)=O)=C(O)[C@@]2(O)C(=O)C3=C(O)c4c(O)cccc4[C@@](C)(O)[C@H]3[C@H](O)[C@@H]12", "60.9 µM (active)"],
  ["C[N+]1(C)CCCCC1", "inactive"],
  ["CCOP(=S)(OCC)SCCSCC", "inactive"],
  ["CCOP(=O)(NC(C)C)Oc1ccc(SC)c(C)c1 (stereo not given)", "inactive"]
]}

Next, consider the following molecule.
Exercise: What does the record list as AC50 for CC1=NNC(=O)N(/N=C/c2cccnc2)C1 ?
Key: inactive

====

Read-out: Pselectin, SELP (gene 6403)
measurement description: BSK_4H_Pselectin: BioMAP Diversity Plus: 4H Assay for Pselectin Biomarker Activity (AID 2283026)
condition parameters: primary human endothelial cells (HUVEC); actives raise or lower the signal
Calls of active or inactive are those of the source. The calls were made as follows: active = hit-call score of the fitted dose curve at least 0.9, where 1 is the maximum; inactive = score below 0.9.
Permitted responses: True for active, False for inactive

Below are worked cases with known answers.
{"columns": ["compound", "class label"],
 "data": [
  ["CN(C)NC(=O)CCC(=O)O", "False"],
  ["CCOC(=O)CC(SP(=O)(OC)OC)C(=O)OCC (stereo unspecified)", "False"],
  ["CSc1nc(NC(C)C)nc(NC(C)C)n1", "False"],
  ["CCC(=NOC/C=C/Cl)C1=C(O)CC(C2CCOCC2)CC1=O (stereo unspecified)", "False"]
]}

Exercise: What was the test verdict on CCCCN(CC)c1c([N+](=O)[O-])cc(C(F)(F)F)cc1[N+](=O)[O-] ?
Key: False

Exercise: Short answer needed: outcome of this test for CCCOCC(=Nc1ccc(Cl)cc1C(F)(F)F)n1ccnc1 ?
Key: True

Exercise: What outcome does the record of this test show for C=C(C)[C@H]1Cc2c(ccc3c2O[C@@H]2COc4cc(OC)c(OC)cc4[C@@H]2C3=O)O1 ?
Key: True

Exercise: // outcome(item) with item = CCC(=O)Nc1ccc(Cl)c(Cl)c1
Key: False

Exercise: Test call for this compound, please: COP(=O)(OC)SCn1c(=O)oc2cc(Cl)cnc21
Key: True

Exercise: Could you kindly confirm the outcome this assay logged for CC1(C(=O)Nc2ccc(O)c(Cl)c2Cl)CCCCC1 ?
Key: False

Exercise: Recorded test call requested for CCOP(=S)(OCC)Oc1cc(C)nc(C(C)C)n1
Key: False
